These data points were gathered from patent US20230248626A1.

What follows is a collection of MIC values obtained with Corynebacterium jeikeium.
QUANTITY_MEASURED: MIC (µg/mL)

>>> quantitative_readout("CCCCCCC(O)C(C)O (centres unmarked) [2,3-nonanediol]")
2500

I: CCCCCCCCC(O)CO (centres unmarked) [1,2-Decanediol, 1,2-decanediol, reference compound]
II: CCCCCCC(O)CO (centres unmarked) [1,2-octanediol]
III: CCCCCC(O)CO (centres unmarked) [1,2-heptanediol]
Request: Hey, quick one: sort these by MIC, largest value first please. The labels, placed in the requested order, form the answer.
Response: III, II, I
